- experimental.target: T1, LGR7 (leucine-rich repeat-containing GPCR 7) (human, UniProt Q9HBX9 1-757)
- T1 construct: whole, on cells; The methods say only 'recombinant LGR7' stably expressed in HEK293T cells; also called RFXR1; recombinant LGR7
- T1 sequence (looked up): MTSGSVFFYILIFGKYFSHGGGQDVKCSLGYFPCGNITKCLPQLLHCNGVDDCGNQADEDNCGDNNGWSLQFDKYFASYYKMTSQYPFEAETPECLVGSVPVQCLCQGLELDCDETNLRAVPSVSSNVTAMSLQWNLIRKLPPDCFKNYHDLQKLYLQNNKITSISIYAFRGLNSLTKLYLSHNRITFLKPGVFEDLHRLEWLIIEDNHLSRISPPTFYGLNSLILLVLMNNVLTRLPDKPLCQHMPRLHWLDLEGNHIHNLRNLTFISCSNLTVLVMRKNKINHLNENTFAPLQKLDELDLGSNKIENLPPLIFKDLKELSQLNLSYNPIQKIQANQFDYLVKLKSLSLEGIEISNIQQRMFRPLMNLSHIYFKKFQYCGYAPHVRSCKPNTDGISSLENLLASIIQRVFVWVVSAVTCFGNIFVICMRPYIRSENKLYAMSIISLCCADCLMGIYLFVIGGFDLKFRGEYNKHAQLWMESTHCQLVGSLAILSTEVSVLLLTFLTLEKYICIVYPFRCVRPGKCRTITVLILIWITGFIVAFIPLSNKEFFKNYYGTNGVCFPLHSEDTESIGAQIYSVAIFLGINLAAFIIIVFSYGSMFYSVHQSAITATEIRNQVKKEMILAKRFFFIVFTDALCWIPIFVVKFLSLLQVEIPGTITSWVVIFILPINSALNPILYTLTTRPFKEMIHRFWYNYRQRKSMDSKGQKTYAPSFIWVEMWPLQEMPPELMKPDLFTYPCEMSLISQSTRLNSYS
- test.details: competition with 125I-RLN2 tracer on LGR7-expressing HEK293T cells
Where no end group is shown, it is not given here.
Would you mind telling me the reported pIC50 of each entry?
Give bare numbers.

Recorded results for 2 binders are shown here.
| binder | pIC50 |
| --- | --- |
| RLN2 T^A16A (ligand, not shown: small tags and cut ends, not fully specified; ends and bridges not checked; also: N-terminal Myc epitope tag, Construct with the 8-amino acid linker, processed to the mature two-chain form) chain 1: SWMEEVIKLCGRELVRAQIAICGMSTWSHHHHHH chain 2: QLYSALANKCCHVGCAKRSLARFC | 8.4 |
| Nontagged human RLN2 peptide (ligand, not fully specified (bridges); ends and bridges not checked, Used as a standard; also called Nontagged RLN2; nontagged wild type RLN2 peptide) chain 1: SWMEEVIKLCGRELVRAQIAICGMSTWS chain 2: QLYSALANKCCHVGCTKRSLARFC | 8.78 |

For the next question, use this binder.
Asked: Form field: reported pIC50 of WT RLN2 (recombinant wild type human RLN2, Myc- and His6-tagged) (ligand, not shown: small tags and cut ends, also called wild type RLN2; wild type peptide) chain 1: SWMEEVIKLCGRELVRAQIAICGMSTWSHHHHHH chain 2: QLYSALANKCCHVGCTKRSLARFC
Given back: 8.72
